From: patent US10294234B2

settings: human, microsomes
Provide the reported Human Pred Cl. of each item.
Give the value; after it, write the unit.

COC(=O)N[C@H](C(=O)N[C@@H](Cc1ccc(C#Cc2ccc(N3C4CC3CN(C3COC3)C4)nc2)cc1)[C@@H](O)CN(Cc1c(F)cc(-c2cnn(C(F)F)c2)cc1F)NC(=O)[C@@H](NC(=O)OC)C(C)(C)C(F)(F)F)C(C)(C)C(F)(F)F; 0.6 L/H/kg

Now consider a different compound.
Note to self: Human Pred Cl. recorded for COC(=O)N[C@H](C(=O)NN(Cc1c(F)cc(-c2ccn(C(F)F)n2)cc1F)C[C@H](O)[C@H](Cc1ccc(C#Cc2ccc(N3CC4CCC(C3)N4C3COC3)nc2)cc1)NC(=O)[C@@H](NC(=O)OC)C(C)(C)C(F)(F)F)C(C)(C)C was 0.13 L/H/kg

---

test: in vivo; details: male, SD, rat, in vivo, po, 2.5 mg/kg
Rule for this label: label 1 means RAT PO F is less than 20%; label 0 means RAT PO F is at least 20%.

COC(=O)N[C@H](C(=O)N[C@@H](Cc1ccc(C#Cc2cnc(N3CC4CCC(C3)N4C3COC3)nc2)cc1)[C@@H](O)CN(Cc1c(F)cc(-c2cnn(C(F)F)c2)cc1F)NC(=O)[C@@H](NC(=O)OC)C(C)(C)C(F)(F)F)C(C)(C)C(F)(F)F [Example 61]; label 1

Query: Check if RAT PO F falls below 20% for COC(=O)N[C@H](C(=O)NN(Cc1c(F)cc(-c2ccn(C(F)F)n2)cc1F)C[C@H](O)[C@H](Cc1ccc(C#Cc2ccc(N3CC4CCC(C3)N4C3COC3)nc2)cc1)NC(=O)[C@@H](NC(=O)OC)C(C)(C)C(F)(F)F)C(C)(C)C [Example 73] .
Reply: label 0

Query: Check if RAT PO F falls below 20% for COC(=O)N[C@H](C(=O)N[C@@H](Cc1ccc(C#Cc2ccc(N3CC4COCC(C3)N4C3COC3)nc2)cc1)[C@@H](O)CN(Cc1c(F)cc(-c2ccn(C(F)F)n2)cc1F)NC(=O)[C@@H](NC(=O)OC)C(C)(C)C(F)(F)F)C(C)(C)C(F)(F)F [Example 180] .
Reply: label 1

Query: Check if RAT PO F falls below 20% for COC(=O)N[C@H](C(=O)N[C@@H](Cc1ccc(C#Cc2cnc(N3CC4CCC(C3)N4C3COC3)nc2)cc1)[C@@H](O)CN(Cc1c(F)cc(-c2ccn(C(F)F)n2)cc1F)NC(=O)[C@@H](NC(=O)OC)C(C)(C)C(F)(F)F)C(C)(C)C(F)(F)F [Example 171] .
Reply: label 0

Query: Check if RAT PO F falls below 20% for COC(=O)N[C@H](C(=O)N[C@@H](Cc1ccc(C#Cc2ccc(N3CC4CCC(C3)N4C3COC3)nc2)cc1)[C@@H](O)CN(Cc1c(F)cc(-c2ccn(CC(F)F)n2)cc1F)NC(=O)[C@@H](NC(=O)OC)C(C)(C)C(F)(F)F)C(C)(C)C(F)(F)F [Example 46] .
Reply: label 1

---

assay: in vivo; details: male, beagle, dog, plasma, iv
Provide the reported Vd of each item.
One number for each entry, in L/kg.

COC(=O)N[C@H](C(=O)N[C@@H](Cc1ccc(C#Cc2ccc(N3CC4CCC(C3)N4C3COC3)nc2)cc1)[C@@H](O)CN(Cc1c(F)cc(-c2ccn(C(F)F)n2)cc1F)NC(=O)[C@@H](NC(=O)OC)C(C)(C)C(F)(F)F)C(C)(C)C(F)(F)F; 6.34

Now consider a different molecule.
Note to self: Vd recorded for COC(=O)N[C@H](C(=O)N[C@@H](Cc1ccccc1)[C@@H](O)CN(Cc1ccc(-c2ccccn2)cc1)NC(=O)[C@@H](NC(=O)OC)C(C)(C)C)C(C)(C)C [atazanavir, reference compound] was 0.9
